Values compiled from patent US20100144712A1.

Tested on: Candida albican ATCC 96901
experimental_protocol: In vitro antifungal activity (MIC80), Candida albican ATCC 96901
Type: cell-based
condition_details: Candida, ATCC96901; Table 2, ATCC 96901; read-out: Minimal inhibitory concentration (MIC80)
Each entry below carries its recorded MIC80.
reported_property: MIC80

INSERT INTO measurements (molecule, reported_property, reported_value) VALUES
  ('CCC(C)n1ncn(-c2ccc(N3CCN(c4ccc(OCC5COC(Cn6cncn6)(c6ccc(Cl)cc6Cl)O5)cc4)CC3)cc2)c1=O (stereo not drawn) [I, itraconazole, reference compound]', 'MIC80', '> 128 µg/mL'),
  ('C[C@@H](N1CCN(C(=O)c2nc(-c3ccc(F)cc3)ns2)CC1)[C@](O)(Cn1cncn1)c1ccc(F)cc1F', 'MIC80', '32 µg/mL'),
  ('COc1ccc(-c2nsc(C(=O)N3CCN([C@H](C)[C@](O)(Cn4cncn4)c4ccc(F)cc4F)CC3)n2)cc1', 'MIC80', '> 128 µg/mL'),
  ('C[C@@H](N1CCN(c2nc3ccc(NCCN4CCOCC4)cc3s2)CC1)[C@](O)(Cn1cncn1)c1ccc(F)cc1F', 'MIC80', '2 µg/mL'),
  ('C[C@@H](N1CCN(c2ccccn2)CC1)[C@](O)(Cn1cncn1)c1ccc(F)cc1F', 'MIC80', '16 µg/mL'),
  ('CC(N1CCN(C(=O)c2cn3c(C(=O)c4ccccc4)cnc3s2)CC1)C(O)(Cn1cncn1)c1ccc(F)cc1F (stereo not drawn)', 'MIC80', '8 µg/mL');
